Provenance of the data: the RNAGym collection of RNA variant scans (doi:10.7554/elife.90254)

B1: LINE1-full (parent)
chain: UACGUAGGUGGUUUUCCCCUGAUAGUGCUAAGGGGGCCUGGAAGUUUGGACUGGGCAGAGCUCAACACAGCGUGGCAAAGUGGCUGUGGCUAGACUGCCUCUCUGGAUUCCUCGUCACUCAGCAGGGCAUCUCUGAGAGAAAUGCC

Variants of: B1
Assay summary: self-cleavage, relative activity (ratio to wild type); higher = more cleavage; in vitro, sequencing; the parent is a self-cleaving ribozyme
Metric: self-cleavage

INSERT INTO results (var, value_measured) VALUES
  ('A67G C111U', 0.54),
  ('U52C U91C', 0.67),
  ('C3A U39A', 0.96),
  ('A67G A141G', 0.38),
  ('G49U U91C', 0.46),
  ('C3U U20G', 0.53),
  ('A92G A142G', 0.14),
  ('U13C C110U', 1.43),
  ('G89A U130C', 0.02),
  ('A31U A50G', 0.16);

Qu. Data request, read-out self-cleavage, for G48U U81A
Ans. 1.8

Qu. Data request, read-out self-cleavage, for U45C C68U
Ans. 0.16

Qu. Data request, read-out self-cleavage, for A42U U132A
Ans. 1.02

Qu. Data request, read-out self-cleavage, for U102G
Ans. 0.71

Qu. Data request, read-out self-cleavage, for A43G A138G
Ans. 1.34
